Every entry's value here was drawn from PubChem BioAssay AID588405.

runDescription: inhibition of PEG-3 promoter activity – cell-based, HeLa, luciferase luminescence, primary screen (AID 588405)
experimentalConditions: HeLa PEG-Prom luciferase reporter, overnight, at 20 µM, active compounds read high
About 6,200 (1.7%) of roughly 360,000 compounds were called active. This is one part of a sample in which actives are shown more often than they occur.
Reported inhibition values for the following compounds.
The response must be a number in % with no trailing unit.

{"columns": ["compound", "inhibition (%)"],
 "data": [
  ["CCOC(=O)c1sc(C)c2c1NC(C)(c1cccc3ccccc13)NC2=O (stereo unspecified)", 34.8],
  ["CN1CCC(OC(=O)COc2ccc(Cl)cc2Cl)CC1", 3.36],
  ["CNC(=O)NC(=O)C(OC(=O)c1cccc(S(=O)(=O)N2CCCCC2)c1)c1ccccc1 (stereo unspecified)", 8.72],
  ["CC1C(C)N(C(=O)CCl)c2ccccc2N1C(=O)CCl (stereo unspecified)", 99.2],
  ["COc1ccc(-c2ccc(C(=O)NCCN3CCOCC3)c3occc23)c(C)c1", -2.5]
]}

What value of measured inhibition is listed for COC(c1ccccc1)(c1ccccc1)C(Oc1nc(C)cc(C)n1)C(=O)O (stereo unspecified) ? 19
